Biological target: Human C5 (Homo sapiens)
Construct: purchased Complement Technology
Sequence (P01031 19-1676): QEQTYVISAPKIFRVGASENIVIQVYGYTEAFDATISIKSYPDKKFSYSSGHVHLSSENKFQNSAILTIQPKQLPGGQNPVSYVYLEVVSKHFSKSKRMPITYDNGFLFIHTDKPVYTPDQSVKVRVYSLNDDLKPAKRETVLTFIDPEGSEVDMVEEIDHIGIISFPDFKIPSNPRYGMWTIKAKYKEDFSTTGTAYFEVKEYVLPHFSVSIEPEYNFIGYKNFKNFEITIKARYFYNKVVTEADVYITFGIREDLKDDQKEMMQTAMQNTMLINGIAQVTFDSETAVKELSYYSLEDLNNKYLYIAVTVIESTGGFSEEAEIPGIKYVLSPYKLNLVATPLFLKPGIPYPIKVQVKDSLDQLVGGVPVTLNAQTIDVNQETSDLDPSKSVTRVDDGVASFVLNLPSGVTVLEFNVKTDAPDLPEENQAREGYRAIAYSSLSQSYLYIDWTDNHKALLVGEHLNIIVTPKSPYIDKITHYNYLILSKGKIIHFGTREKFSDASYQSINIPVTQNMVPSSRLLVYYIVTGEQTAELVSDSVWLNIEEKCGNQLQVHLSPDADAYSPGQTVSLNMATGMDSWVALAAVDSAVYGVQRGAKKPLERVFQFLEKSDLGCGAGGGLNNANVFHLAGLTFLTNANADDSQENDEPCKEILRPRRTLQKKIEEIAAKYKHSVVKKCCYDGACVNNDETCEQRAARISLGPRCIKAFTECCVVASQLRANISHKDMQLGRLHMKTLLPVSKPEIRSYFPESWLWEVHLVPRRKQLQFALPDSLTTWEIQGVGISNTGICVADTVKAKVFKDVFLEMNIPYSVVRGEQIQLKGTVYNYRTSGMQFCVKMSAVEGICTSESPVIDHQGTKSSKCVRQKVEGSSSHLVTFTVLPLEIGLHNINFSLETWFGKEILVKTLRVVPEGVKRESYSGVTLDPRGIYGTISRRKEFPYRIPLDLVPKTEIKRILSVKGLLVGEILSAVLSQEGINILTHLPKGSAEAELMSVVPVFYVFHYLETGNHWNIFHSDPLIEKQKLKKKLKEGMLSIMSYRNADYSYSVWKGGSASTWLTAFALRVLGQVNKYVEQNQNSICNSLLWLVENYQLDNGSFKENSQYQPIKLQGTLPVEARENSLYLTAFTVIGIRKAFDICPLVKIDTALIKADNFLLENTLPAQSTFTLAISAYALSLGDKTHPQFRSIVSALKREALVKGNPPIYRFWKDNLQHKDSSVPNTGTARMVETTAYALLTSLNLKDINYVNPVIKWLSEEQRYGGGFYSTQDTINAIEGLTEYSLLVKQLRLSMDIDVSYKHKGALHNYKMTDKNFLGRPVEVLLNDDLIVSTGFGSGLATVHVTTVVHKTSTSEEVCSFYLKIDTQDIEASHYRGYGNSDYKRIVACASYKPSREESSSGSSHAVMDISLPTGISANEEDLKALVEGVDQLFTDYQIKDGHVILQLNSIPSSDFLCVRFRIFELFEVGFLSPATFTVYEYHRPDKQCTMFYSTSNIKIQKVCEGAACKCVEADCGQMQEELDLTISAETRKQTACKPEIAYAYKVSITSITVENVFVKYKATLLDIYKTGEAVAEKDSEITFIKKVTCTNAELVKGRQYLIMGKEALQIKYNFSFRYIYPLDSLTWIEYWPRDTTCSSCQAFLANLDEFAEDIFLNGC
Test: Red blood cell (RBC) hemolysis assay, luminescent (Example 13, Table 22); further: 1.5% C5-depleted human serum
Format: cell-based
Settings: sheep EA cells, […] C5-depleted human serum, 0.5 nM human C5, 1 hour 37° C., luminescence
Answer each item with its documented IC50.
Numbers only, in nM.

Some molecules with known IC50 results, for comparison:
molecule="CCCCCOc1cc(N2CCCN(Cc3ccc(CC(=O)N4CCOC(COC)C4)cc3OC)C2=O)ccc1OC (stereo not shown) [CU0105]" measurement=130
molecule="CCCCCOc1cc(N2CCCN(Cc3ccc(CNC(=O)OC)cc3OC)C2=O)ccc1OC [CU0137]" measurement=10
molecule="CCCCCOc1cc(N2CCN(Cc3ccnc4c3ccn4CC(=O)N3CCNC(=O)C3)C2=O)ccc1OC [CU0058]" measurement=2490
molecule="CCCCCOc1cc(N2CCCN(Cc3ccc(CC(=O)N(C)C)cc3Cl)C2=O)ccc1OC [CU0115]" measurement=27.9
molecule="CCCCCOc1cc(N2CCCN(Cc3ccnc4c3ccn4CC(=O)N3CCOC(C)(COC)C3)C2=O)ccc1OC (stereo not shown) [CU0049]" measurement=44.7

State the recorded IC50 for every item in the following list.
1. CCCCCOc1cc(N2CCCN(Cc3ccnc4c3ccn4CC(=O)N3CCNC(=O)C3)C2=O)ccc1OC [CU0059]
2. CCC(F)(F)CCOc1cc(N2CCCN(Cc3ccc(CC(=O)NC4CCN(C(C)C)CC4)cc3OC)C2=O)ccc1OC [CU0207]
3. CCCCCOc1cc(N2CCCN(Cc3ccc(CC(=O)NC4CCN(C(C)=O)C4)cc3OC)C2=O)ccc1OC (stereo not shown) [CU0110]
4. CCCCCOc1cc(N2CCCN(Cc3ccc(CC(=O)N4CCN=C(N(C)C)C4)cc3OC)C2=O)ccc1OC [CU0173]
5. CCCCCOc1cc(N2CCCN(Cc3ccc(CCN(CC)CC)cc3OC)C2=O)ccc1OC [CU0122]
6. CCCCCOc1cc(N2CCCN(Cc3ccnc4c3ccn4CC(=O)N3CCOCC3)C2=O)ccc1OC [CU0043]
7. CCCCCOc1cc(N2CCCN(Cc3cccc(N4CCC(C(C)(C)O)C4)c3F)C2=O)ccc1OC (stereo not shown) [CU0131]

[32.9, 13.1, 16.4, 11.4, 17.1, 29.5, 151]

###

Target: purified human C5 (Homo sapiens, UniProt P01031)
Assay: Red blood cell hemolysis assay, optical, absorbance 412 nm (Example 3, Table 6)
Assay type: cell-based
Conditions: antibody-sensitized sheep erythrocytes, 1.5% human C5 depleted sera, 0.5 nM human C5; average where replicates
Field: pIC50. Provide a value for each of the molecules that follow.
Give bare numbers, as −log10 of the molar value.

Worked examples follow.
molecule="COc1cccc(CNC(=O)Nc2ccc(OC)c(OCCCC(C)C)c2)c1 [SM0047]" measurementlabel=pIC50 measurement=5.64
molecule="C=CCCOc1cc(NC(=O)N[C@@H](CO)c2ccccc2)ccc1OC [SM0034]" measurementlabel=pIC50 measurement=5.96
molecule="CCCCOc1cc(NC(=O)N[C@@H](CO)c2ccccc2)ccc1OC [SM0035]" measurementlabel=pIC50 measurement=5.93
molecule="COc1cccc(C(CO)NC(=O)Nc2ccc(OC)c(OCCCC(C)C)c2)c1 (stereo not drawn) [SM0028]" measurementlabel=pIC50 measurement=6.05
molecule="COc1ccc(NC(=O)NCc2ccc(CN(C)C)cc2)cc1OCCCC(C)C [SM0043]" measurementlabel=pIC50 measurement=5.67

For every record below, what is its pIC50?
1. CCCCCc1cccc(NC(=O)N[C@@H](CO)c2ccccc2)c1 [SM0087]
2. COc1ccc(NC(=O)NCc2ccccc2F)cc1OCCCC(C)C [SM0058]
3. CC(C)CCCOc1cc(NC(=O)N[C@@H](CO)c2ccccc2)ccc1F [SM0075]
4. COc1ccc(NC(=O)N[C@@H]2c3ccccc3C[C@@H]2O)cc1OCCCC(C)C [SM0066]
5. COc1ccc(NC(=O)NCc2cccc(C#N)c2)cc1OCCCC(C)C [SM0076]

1. 4.78
2. 5.39
3. 4.94
4. 5.16
5. 4.93

Provide each entry's pIC50 from the list below.
1. COc1ccc(NC(=O)NC(CO)c2ccccc2C)cc1OCCCC(C)C (stereo not drawn) [SM0036]
2. COc1ccc(NC(=O)NCc2ccc(O)c(O)c2)cc1OCCCC(C)C [SM0015]

[5.91, 6.47]

src = patent US20230115176A1
